Reported Bliss interaction score values follow for various compounds
# Test system: B. subtilis 168;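 note: first quartile when negative (synergy) and third quartile when positive (antagonism)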
# Assay Protocol: Bliss interaction score (quartile over a dose matrix) (fitness difference); higher = more antagonism (negative = synergy)
# Conditions Used: main component drawn
Answer with the value's number alone.

Ask | Check the records and state Bliss interaction score for CNC(C)C1CCC(N)C(OC2C(N)CC(N)C(OC3OCC(C)(O)C(NC)C3O)C2O)O1 (stereo not drawn) [Gentamicin] + COc1c(N2C[C@@H]3CCCN[C@@H]3C2)c(F)cc2c(=O)c(C(=O)O)cn(C3CC3)c12 [Moxifloxacin]
Reply | 0.0561

Ask | Check the records and state Bliss interaction score for CNC(C)C1CCC(N)C(OC2C(N)CC(N)C(OC3OCC(C)(O)C(NC)C3O)C2O)O1 (stereo not drawn) [Gentamicin] + Cc1onc(-c2ccccc2)c1C(=O)N[C@@H]1C(=O)N2[C@@H]1SC(C)(C)[C@@H]2C(=O)O [Oxacillin]
Reply | -0.0859

Ask | Check the records and state Bliss interaction score for CNC(C)C1CCC(N)C(OC2C(N)CC(N)C(OC3OCC(C)(O)C(NC)C3O)C2O)O1 (stereo not drawn) [Gentamicin] + CC[C@H]1OC(=O)[C@H](C)C(=O)[C@H](C)[C@@H](O[C@@H]2O[C@H](C)C[C@H](N(C)C)[C@H]2O)[C@](C)(OC)C[C@@H](C)C(=O)[C@H](C)[C@H]2N(CCCCn3cnc(-c4cccnc4)c3)C(=O)O[C@]12C [Telithromycin]
Reply | 0.0903
